Reference source: the supplement of paper PMC9170038

- System: MS2 coat protein
- Protocol text: apparent KD of MS2 coat protein; designed switch direction (-1 OFF switch, 1 ON switch): -1; higher = weaker reporter binding
- Test conditions: input ligand: microRNA oligo, concentration not stated
Measurement name: apparent KD of MS2 coat protein (nM)
Number only, in nM; omit the unit.

Monomer sequence: UUUGUCUGUGUGAGGAUAUACUUGUUUGGGUUUUUGUAGAAGGCACAUGAGGAUCACCCAUGUAUUUUGUCGUG [JR_BME4_Sub018] (Eterna round: R96, puzzle: Brourd's mod of Exclusion 4)
apparent KD of MS2 coat protein [nM]: 34.1

# apparent KD of MS2 coat protein of AGAGAAUACUCAGGAUAUCUUAAUAGAAAGAGUAGAGAAGGGAGACAUGAGGAUCACCCAUGUGAAGUCUUGAGACUACAUGGU [Prohibition 28 - Jieux - Exclusion NG 1] (Eterna round: R96, puzzle: Exclusion NG 1) = 305

Reported apparent KD of MS2 coat protein ( UUAAAUCAUGUAGGAUAUGCGUGGCAAAGCUAUGCAGAAGGACAUGAGGAUCACCCAUGUUCUAGCGUCUGAGAACAGAUGCUA [Mat - Exclusion NG 1 - Mod of JL - D78] (Eterna round: R96, puzzle: Exclusion NG 1) ) = 24.2

The sequence listed as UGUUGUUACGCAGGAUAUGUAUGAGGAUCACCCAUAAGAGUUGAUGUACCAUGAGGAUCACCCAUGUAGAAGGGCGGGUUAACA [pwkr exNG2 2xF5 1xFMN.9] (Eterna round: R96, puzzle: Exclusion NG 2) has a reported apparent KD of MS2 coat protein of 194

apparent KD of MS2 coat protein recorded for this sequence, UCGCUCCGUGUAGGAUAUCGCCGUACUAUUCGGCGAGAAGGACAUGAGGAUCACCCAUGUAUGUUAUUAUCACGCGUGGCGCAA [Design 59] (Eterna round: R96, puzzle: Exclusion NG 1) , is 15.2

Quick note, apparent KD of MS2 coat protein for CCCGACAUGUCUUCGUAAUACAUGAGGAUCACCCAUGUCACGUAGGAUAUCCAGUCGGUAAGAGAGGAGAAGGAUGUAAGAAAU [Vedite] (Eterna round: R96, puzzle: Exclusion NG 3) landed at 9.14

Entry UUGCAGUCGUCAGGAUAUAGUAUUACGGCCAUUUUUUUUUUCAUACAUGAGGAUCACCCAUGUCGCUAGAAGGGAUUAUCGAUU [salish99_ExNG2_r04_103] (Eterna round: R96, puzzle: Exclusion NG 2) ; apparent KD of MS2 coat protein = 57.1

Looking up CCCAGUUAUUGAGGAUAUCGUACAUGAGGAUCACCCAUGUAAUAAAUGAGGAUUUCGGGUGUCUACGAGAAGGCAAGGAUAGGC [Ostracism 21 - Jieux - Exclusion NG 2] (Eterna round: R96, puzzle: Exclusion NG 2) , I see its apparent KD of MS2 coat protein listed as 37.4

###

- System: MS2 coat protein
- Protocol text: apparent KD of MS2 coat protein; designed switch direction (-1 OFF switch, 1 ON switch): -1; higher = weaker reporter binding
- Test conditions: input ligand: none
Measurement name: apparent KD of MS2 coat protein (nM)
Kindly provide the numeric value in nM only, without the unit symbol.

Consider the reported apparent KD of MS2 coat protein for these sequences:
Monomer sequence: UUAAUUAGCUCGCUAGAUCCUCACAUGAGGAUCACCCAUGUGCAGGAUAUCAGCUCGUUUAGAGCUGAGAAGGGCACUGCGAGC [ExNG3/10-A2] (Eterna round: R96, puzzle: Exclusion NG 3)
Measurement name: apparent KD of MS2 coat protein
Reported: 114

Monomer sequence: ACAUGAGGAUCACCCAUGUAAACAUAAUGGCUCAUGUAGAGUCAGGAUAUGCGUGGCGAACAAACGCAGAAGGGACAAGACUGG [Deportation 26 - Jieux - Exclusion NG 3] (Eterna round: R96, puzzle: Exclusion NG 3)
Measurement name: apparent KD of MS2 coat protein
Reported: 29.6

Monomer sequence: GUGCUAUAGGAAGGAUAUACUUCAUUAUUUAGACAUGAGGAUCACCCAUGUAACCUUAUGUAUGUGUAGAAGGUCCAUAGCUUA (Eterna round: R96, puzzle: Exclusion NG 2)
Measurement name: apparent KD of MS2 coat protein
Reported: 38.8

Monomer sequence: ACAUGAGGAGAAGGAUAUCUUUAGAGGGUUACCAGAGAAGGUCUAACAUGAGGAUCACCCAUGUCAUGAGGGUCUUGAAUGUUG [10th something] (Eterna round: R96, puzzle: Exclusion NG 1)
Measurement name: apparent KD of MS2 coat protein
Reported: 140

sequence UUUUACAUAGGAUAUAGUUGCUUUUACAUGAGGAUCACCCAUGUCUCUCCUCUCUCUCUUCUAGAAGGAUGUUUCU [JR_E5_Sub011] (Eterna round: R96, puzzle: Exclusion 5) , apparent KD of MS2 coat protein observed: 47

Input UUUUUUGUUGUGAGGAUAUCGUUGUUGUUGUGGAUCGAGAAGGCACAUGAGGAUCACCCAUGUUUGUUGUGGUU [JR_BMOE4_Sub086] (Eterna round: R96, puzzle: Brourd's mod of Exclusion 4) . Output apparent KD of MS2 coat protein: 109

Documented apparent KD of MS2 coat protein of ACAUGUAAUGUAGGAUAUUUUACACAUGAGGAUCACCCAUGUAACCGGAGGCUUUACUAUGAGUAAGAGAAGGGUAUGUACAUG [Ex NG2 #63] (Eterna round: R96, puzzle: Exclusion NG 2) : 131

So for GACAGGGCAGGAUAUCGAGAUCCUCACAUGAGGAUCACCCAUGUUCAGUCGAAAGACUGACGAGAAGGGCCGUGUC [Omei Ex5 E3] (Eterna round: R97, puzzle: Exclusion 5) , the logged apparent KD of MS2 coat protein turned out to be 33.2

Memo: ACAUGAGGAUCACCCAUGUAAACAUGAUGGCUGAUGUAGAGCUAGGAUAUGAGUGAAUAUCUAUCUCAGAAGGAGCUUGACUGG [Deportation 46 - Jieux - Exclusion NG 3] (Eterna round: R96, puzzle: Exclusion NG 3) , reported apparent KD of MS2 coat protein: 24.9

Record summary for UCUGUUAUGCGAGGAUAUCGACCAUUCCUCUUAACAUGAGGAUCACCCAUGUGCUAAUCCUUCAACGAGAAGGCGCUCUUACUC [JR_ExcNG2_Sub069] (Eterna round: R96, puzzle: Exclusion NG 2) : reported apparent KD of MS2 coat protein = 268
